Cited source for all entries: patent US20250129070A1

Listed next: entries and their corresponding IC50.
# System: VCaP cells
# experiment_notes: VCaP growth inhibition assay
# Format: cell-based
# reported_conditions: 30 pM R1881, 9 days, CTG

Use these answered entries as a reference point.
CC(=O)N1CCc2c(c(N3CCCc4cc(-c5cnn(C)c5)c(C)cc43)nn2C2CCN(CC3CCN(c4ncc(C(=O)NC5C(C)(C)C(Oc6ccc(C#N)c(Cl)c6)C5(C)C)cn4)CC3(C)C)CC2)C1 (centres unmarked); 0.1 to 1 nM
CNC(=O)N1CCc2c(c(N3CCCc4cc(-c5cnn(C)c5)c(C(F)F)cc43)nn2C2CCN(C(=O)COCCCOCC3CCN(c4ncc(C(=O)NC5C(C)(C)C(Oc6ccc(C#N)c(Cl)c6)C5(C)C)cn4)CC3)CC2)C1 (centres unmarked); ≤ 0.1 nM
CNC(=O)N1CCc2c(c(N3CCCc4cc(-c5cnn(C)c5)c(C(F)F)cc43)nn2C2CCN(C(=O)CN3CCN(c4ccc(C(=O)NC5C(C)(C)C(Oc6ccc(C#N)c(Cl)c6)C5(C)C)cc4)CC3)CC2)C1 (centres unmarked); 0.1 to 1 nM
COc1cc(OC2C(C)(C)C(NC(=O)c3ccc(N4CCC(CN5CCC(n6nc(N7CCCc8cc(-c9cnn(C)c9)c(C(F)F)cc87)c7c6CCN(C(C)=O)C7)CC5)CC4)cc3)C2(C)C)ccc1C#N (centres unmarked); ≤ 0.1 nM

Exam item: Could you share which IC50 value was measured for C[C@@H]1CC(=O)Nc2cccc(-c3ccc4c(c3)c(-c3cnn(C)c3)nn4CCCOc3ncc(C(=O)NC4C(C)(C)C(Oc5ccc(C#N)c(Cl)c5)C4(C)C)cn3)c2N1 (some centres unmarked) ?
Marked response: 1 to 100 nM

Exam item: Could you share which IC50 value was measured for CC(=O)N1CCc2c(c(N3CCCc4cc(-c5cnn(C)c5)c(C(F)F)cc43)nn2C2CCN(C3CC4(CCC(Oc5ncc(C(=O)NC6C(C)(C)C(Oc7ccc(C#N)c(Cl)c7)C6(C)C)cn5)CC4)C3)CC2)C1 (centres unmarked) ?
Marked response: 0.1 to 1 nM

Exam item: Could you share which IC50 value was measured for CC(=O)N1CCc2c(c(Nc3ccc(-c4cnn(C)c4)cc3F)nn2C2CCN(CC3CCN(c4ncc(C(=O)NC5C(C)(C)C(Oc6ccc(C#N)c(Cl)c6)C5(C)C)cn4)CC3)CC2)C1 (centres unmarked) ?
Marked response: 0.1 to 1 nM

Exam item: Could you share which IC50 value was measured for C[C@@H]1CC(=O)Nc2cccc(-c3ccc4c(c3)c(-c3cnn(C)c3)nn4CCCN3CCN(c4ncc(C(=O)NC5C(C)(C)C(Oc6ccc(C#N)c(Cl)c6)C5(C)C)cn4)CC3)c2N1 (some centres unmarked) ?
Marked response: > 100 nM

---

Listed next: entries and their corresponding pIC50.
# System: VCaP cells
# experiment_notes: VCaP growth inhibition assay
# Assay type: cell-based
# reported_conditions: 30 pM R1881, 9 days, CTG
pIC50: −log10 of the molar value.

Use these answered entries as a reference point.
COC1CN(c2ncc(C(=O)NC3C(C)(C)C(Oc4ccc(C#N)c(Cl)c4)C3(C)C)cn2)CCC1CN1CCC(n2nc(N3CCCc4cc(-c5cnn(C)c5)c(C(F)F)cc43)c3c2CCN(C(C)=O)C3)CC1 (stereo not shown) [Compound 329]; ≥ 10.00
CC(=O)N1CCc2c(c(N3CCCc4cc(C#N)c(C(F)F)cc43)nn2C2CCN(CC3C(C)CN(c4ncc(C(=O)NC5C(C)(C)C(Oc6ccc(C#N)c(Cl)c6)C5(C)C)cn4)CC3C)CC2)C1 (stereo not shown); 9.00 to 10.00
CC(=O)N1CCc2c(c(N3CCCc4cc(-c5cnn(C)c5)c(C(F)F)cc43)nn2C2CCN(C(=O)C3CCN(c4ccc(C(=O)NC5C(C)(C)C(Oc6ccc(C#N)c(Cl)c6)C5(C)C)nn4)CC3)CC2)C1 (stereo not shown); ≥ 10.00

Exam item: # get_value(readout= pIC50, system= VCaP cells) for COc1cc(OC2C(C)(C)C(NC(=O)c3ccc(N4CC5(CCC(C6CCC(n7nc(N8CCCc9cc(-c%10cnn(C)c%10)c(C(F)F)cc98)c8c7CCN(C(C)=O)C8)CC6)CC5)C4)cc3)C2(C)C)ccc1C#N (stereo not shown) [Compound 380]
Marked response: 7.00 to 9.00

---

# System: VCaP cells
# experiment_notes: VCaP growth inhibition assay
# Format: cell-based
# reported_conditions: 30 pM R1881, 9 days, CTG
Listed next: entries and their corresponding IC50.

CC(=O)N1CCc2c(c(-c3cccc4cc(-c5ccc(C(=O)NCc6ncc(C(=O)NC7C(C)(C)C(Oc8ccc(C#N)c(Cl)c8)C7(C)C)cn6)nc5)ncc34)nn2C2CCOCC2)C1 (stereo not drawn) [Compound 79]; 0.1 to 1 nM

Exam item: # get_value(readout= IC50, system= VCaP cells) for CC(=O)N1CCc2c(c(Nc3ccc(-c4cnn(C)c4)cc3F)nn2C2CN(CC3CCN(c4ncc(C(=O)NC5C(C)(C)C(Oc6ccc(C#N)c(Cl)c6)C5(C)C)cn4)CC3)C2)C1 (stereo not drawn) [Compound 4]
Marked response: > 100 nM

Exam item: # get_value(readout= IC50, system= VCaP cells) for CC(=O)N1CCc2c(c(N3CCCc4cc(-c5cnn(C)c5)c(C(F)F)cc43)nn2C2CCN(CC3C(C)CN(c4ncc(C(=O)NC5C(C)(C)C(Oc6ccc(C#N)c(Cl)c6C)C5(C)C)cn4)CC3C)CC2)C1 (stereo not drawn) [Compound 460]
Marked response: ≤ 0.1 nM

---

Listed next: entries and their corresponding pIC50.
# Test system: VCaP cells
# experiment_notes: VCaP growth inhibition assay
# Format: cell-based
# reported_conditions: 30 pM R1881, 9 days, CTG
pIC50: −log10 of the molar value.

CC(=O)N1CCc2c(c(N3CCCc4cc(-c5cnn(C)c5)c(C(F)F)cc43)nn2C2CCC(CN3CCN(c4ncc(C(=O)NC5C(C)(C)C(Oc6ccc(C#N)c(Cl)c6)C5(C)C)cn4)CC3)CC2)C1 (stereo not drawn) [Compound 318]; ≥ 10.00
COc1cc(OC2C(C)(C)C(NC(=O)c3ccc(N4CCN(C5CN(c6ccc(-c7cc8cccc(-c9nn(C%10CCOCC%10)c%10c9CN(C(C)=O)CC%10)c8cn7)cn6)C5)CC4)cc3)C2(C)C)ccc1C#N (stereo not drawn) [Compound 322]; ≥ 10.00
CC(=O)N1CCc2c(c(Nc3ccc(-c4cnn(C)c4)cc3F)nn2C2CN(C(=O)CN3CCN(c4ncc(C(=O)NC5C(C)(C)C(Oc6ccc(C#N)c(Cl)c6)C5(C)C)cn4)CC3)C2)C1 (stereo not drawn) [Compound 165]; ≥ 10.00
CC(=O)N1CCc2c(c(N3CCCc4cc(C#N)ccc43)nn2C2CCN(CC3CCN(c4ncc(C(=O)NC5C(C)(C)C(Oc6ccc(C#N)c(Cl)c6)C5(C)C)cn4)CC3)CC2)C1 (stereo not drawn) [Compound 155]; 9.00 to 10.00
CC(=O)N1CCc2c(c(N3CCCc4cc(-c5cnn(C)c5)c(C(F)F)cc43)nn2C2CCN(CCC3CCN(c4ncc(C(=O)NC5C(C)(C)C(Oc6ccc(C#N)c(Cl)c6)C5(C)C)cn4)CC3)CC2)C1 (stereo not drawn) [Compound 174]; ≥ 10.00

Next:
Exam item: # get_value(readout= pIC50, system= VCaP cells) for COc1cc(OC2C(C)(C)C(NC(=O)c3ccc(N4CCC(CN5CCC(n6nc(N7CCCc8cc(-c9cnn(C)c9)c(C(F)F)cc87)c7c6CCN(C(C)=O)C7)CC5)C(OC)C4)cc3)C2(C)C)ccc1C#N (stereo not drawn) [Compound 332]
Marked response: ≥ 10.00
